Data provenance is ChEMBL document CHEMBL1817573.

# assay-method-text: Growth inhibition of human HSF cells at 50 ug/ml after 72 hrs by spectrophotometric analysis
# Format: cell-based
# conditions-used: read-out: GI
experimental-readout: inhibition at 72 h, 50 ug/ml (%)
Use % as the unit, but write only the number.

Example entries and their recorded answers appear below.
O=c1c(-c2ccco2)nnc2n1CCN2c1ccccc1Cl: 20
O=c1c(-c2ccco2)nnc2n1CCN2c1ccc(Cl)c(Cl)c1: 80
O=c1c(-c2ccco2)nnc2n1CCN2c1ccc(Cl)cc1: 90
Cc1cccc(N2CCn3c2nnc(-c2ccco2)c3=O)c1C: 0
O=c1c(-c2ccco2)nnc2n1CCN2c1ccccc1: 60

Form: molecule = `O=c1c(-c2ccco2)nnc2n1CCN2c1cccc(Cl)c1` ; inhibition at 72 h, 50 ug/ml = 75

* * *

# Tested on: T47D
# assay-method-text: Growth inhibition of human T47D cells at 50 ug/ml after 24 hrs by spectrophotometric analysis
# Assay type: functional
# conditions-used: read-out: GI
In this section, each of the compounds is paired with its reported inhibition of growth at 50 µg/mL.
Put down the number, then write its unit next to it.

O=c1c(-c2ccco2)nnc2n1CCN2c1ccccc1: 50%
Cc1cccc(N2CCn3c2nnc(-c2ccco2)c3=O)c1C: 0%
O=c1c(-c2ccco2)nnc2n1CCN2c1ccc(Cl)cc1: 0%

Entry `O=c1c(-c2ccco2)nnc2n1CCN2c1c(Cl)cccc1Cl` , inhibition of growth at 50 µg/mL reported as 10%

inhibition of growth at 50 µg/mL reading for `O=c1c(-c2ccco2)nnc2n1CCN2c1cccc(Cl)c1` : 20%

* * *

# assay-method-text: Lipophilicity, log Kw of the compound in methanol-water mixture by RP-HPLC
# Type: physicochemical
experimental-readout: logKw
Enter a number only.

Record `O=c1c(-c2ccco2)nnc2n1CCN2c1ccccc1` , field logKw: 2.64

Lab note: measured logKw of `O=c1c(-c2ccco2)nnc2n1CCN2c1ccc(Cl)cc1` was 3.45

Noted for `Cc1ccccc1N1CCn2c1nnc(-c1ccco1)c2=O` : its logKw reads 2.48

The compound listed as `Cc1ccc(N2CCn3c2nnc(-c2ccco2)c3=O)cc1` has a reported logKw of 3.27

GET /value?item= `O=c1c(-c2ccco2)nnc2n1CCN2c1cccc(Cl)c1` &field=logKw returns 3.45

Looking up `Cc1cccc(N2CCn3c2nnc(-c2ccco2)c3=O)c1C` , I see its logKw listed as 3

For this compound ( `O=c1c(-c2ccco2)nnc2n1CCN2c1ccccc1Cl` ), measured logKw is 2.78

`COc1ccccc1N1CCn2c1nnc(-c1ccco1)c2=O` has a reported logKw of 2.54

* * *

Below, each entry is listed alongside its reported inhibition of growth at 50 µg/mL.
# Tested on: HeLa
# assay-method-text: Growth inhibition of human HeLa cells at 50 ug/ml after 48 hrs by spectrophotometric analysis
# Format: functional
# conditions-used: read-out: GI
Express your answer in %, writing the number without its unit.

// below: answered compounds
O=c1c(-c2ccco2)nnc2n1CCN2c1ccc(Cl)cc1: 75
Cc1ccccc1N1CCn2c1nnc(-c1ccco1)c2=O: 25
O=c1c(-c2ccco2)nnc2n1CCN2c1ccc(Cl)c(Cl)c1: 50
O=c1c(-c2ccco2)nnc2n1CCN2c1ccccc1: 75
O=c1c(-c2ccco2)nnc2n1CCN2c1c(Cl)cccc1Cl: 80
COc1ccccc1N1CCn2c1nnc(-c1ccco1)c2=O: 35

# lookup: `Cc1ccc(N2CCn3c2nnc(-c2ccco2)c3=O)cc1` on HeLa, inhibition of growth at 50 µg/mL = 50

Value sought: inhibition of growth at 50 µg/mL, system HeLa, item `COc1ccc(N2CCn3c2nnc(-c2ccco2)c3=O)cc1` . Result: 80

For `O=c1c(-c2ccco2)nnc2n1CCN2c1cccc(Cl)c1` on HeLa, measured inhibition of growth at 50 µg/mL was 80

Log: HeLa, compound `O=c1c(-c2ccco2)nnc2n1CCN2c1ccccc1Cl` , inhibition of growth at 50 µg/mL = 80

Entry `Cc1cccc(N2CCn3c2nnc(-c2ccco2)c3=O)c1C` : inhibition of growth at 50 µg/mL on HeLa = 75
